Please find below pKi data on 5-hydroxytryptamine receptor 1A (Rattus norvegicus) compiled from the literature.
Sequence (P19327 whole entry): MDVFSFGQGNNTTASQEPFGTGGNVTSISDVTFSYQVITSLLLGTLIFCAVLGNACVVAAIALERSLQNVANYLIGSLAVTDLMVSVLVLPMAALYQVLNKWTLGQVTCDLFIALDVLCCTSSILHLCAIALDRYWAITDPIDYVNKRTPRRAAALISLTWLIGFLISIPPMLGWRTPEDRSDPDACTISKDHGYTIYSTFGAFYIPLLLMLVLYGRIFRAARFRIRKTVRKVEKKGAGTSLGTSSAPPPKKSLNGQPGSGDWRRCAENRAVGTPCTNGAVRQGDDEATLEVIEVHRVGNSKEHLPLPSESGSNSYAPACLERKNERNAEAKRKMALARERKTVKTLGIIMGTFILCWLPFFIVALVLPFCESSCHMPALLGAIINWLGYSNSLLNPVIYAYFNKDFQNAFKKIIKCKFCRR
pKi: −log10 of the molar value.
Cut-off 8 on pKi, inclusive. At or above means rule met; below means rule not met.

Would you please look over these solved cases?
Q. Exam item: decide whether the reported pKi for COc1ccccc1N1CCN(CCCSc2nc3sccc3c(=O)n2N)CC1 is at least 8.
A. rule met

Q. Could you verify whether the entry CCCN(CCC)C1CCc2ccc3[nH]cc(C(=O)C(N)=O)c3c2C1 (stereo not drawn) shows pKi of no less than 8?
A. rule not met

Further cases:
Q. Is it the case that CC1CC2(C)CC(=O)C1C1C(=O)N(CCCCN3CCN(Cc4ccccc4)CC3)C(=O)C12 (stereo not drawn) has pKi reaching or exceeding 8?
A. rule not met

Q. Tell me whether pKi is at least 8 here: O=[N+]([O-])c1ccc(-n2cc(CN3CCN(c4ccccc4)CC3)nn2)cc1
A. rule not met

Q. Assess whether reported pKi for COc1ccccc1N1CCN(CCCN2C(=O)C3CCCCN3C2=O)CC1 (stereo not drawn) sits at 8 or higher.
A. rule met

Q. Does the reported pKi for O=C(c1cccc(C(F)(F)F)c1)N1CCC(CNCc2cccc(-n3cccn3)n2)CC1 fall at or above the 8 mark?
A. rule met

Q. Test whether the compound Fc1ccc(N2CCN(Cc3cnn(-c4ccccc4)c3)CC2)cc1 records pKi of 8 or higher.
A. rule not met

Q. Could you verify whether the entry O=C(CCCN1CCN(c2noc3ccccc23)CC1)c1ccccc1O shows pKi of no less than 8?
A. rule not met

Q. Answer whether pKi of CCCN(CCC)[C@@H]1COc2c(cccc2-c2ccccc2OC)C1 is greater than or equal to 8.
A. rule not met

Q. Kindly determine if pKi recorded for O=C(NCCCN1CCN(c2ccccn2)CC1)c1ccccn1 is above or exactly 8.
A. rule not met

Q. pKi >= 8 for Cc1cccc(C#N)c1-c1cccc2c1-c1cccc3c1[C@@H](C2)N(C)CC3 ?
A. rule not met
